# target: calpain-I isolated from human erythrocytes (Homo sapiens)
# Construct: calpain-I—isolated from human erythrocytes
# Sequence (P07384 whole entry): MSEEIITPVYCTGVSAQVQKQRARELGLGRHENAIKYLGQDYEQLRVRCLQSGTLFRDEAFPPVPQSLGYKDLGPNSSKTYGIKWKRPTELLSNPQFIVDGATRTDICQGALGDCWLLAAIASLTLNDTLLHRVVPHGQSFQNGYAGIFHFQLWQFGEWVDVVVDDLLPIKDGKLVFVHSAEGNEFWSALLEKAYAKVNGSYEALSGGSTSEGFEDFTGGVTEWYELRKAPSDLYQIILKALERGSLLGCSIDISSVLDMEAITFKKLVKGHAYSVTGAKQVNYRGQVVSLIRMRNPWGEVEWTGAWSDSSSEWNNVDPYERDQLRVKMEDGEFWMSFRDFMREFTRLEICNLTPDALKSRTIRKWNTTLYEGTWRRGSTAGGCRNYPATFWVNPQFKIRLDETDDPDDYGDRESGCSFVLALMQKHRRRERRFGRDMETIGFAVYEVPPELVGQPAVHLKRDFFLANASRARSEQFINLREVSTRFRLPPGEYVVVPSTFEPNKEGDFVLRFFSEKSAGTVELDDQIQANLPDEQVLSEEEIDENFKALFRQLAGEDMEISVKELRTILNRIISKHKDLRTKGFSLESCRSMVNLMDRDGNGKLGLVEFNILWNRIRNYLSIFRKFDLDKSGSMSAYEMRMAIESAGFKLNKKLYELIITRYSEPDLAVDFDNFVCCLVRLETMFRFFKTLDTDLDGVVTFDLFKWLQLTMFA
# Sequence (P04632 whole entry partner): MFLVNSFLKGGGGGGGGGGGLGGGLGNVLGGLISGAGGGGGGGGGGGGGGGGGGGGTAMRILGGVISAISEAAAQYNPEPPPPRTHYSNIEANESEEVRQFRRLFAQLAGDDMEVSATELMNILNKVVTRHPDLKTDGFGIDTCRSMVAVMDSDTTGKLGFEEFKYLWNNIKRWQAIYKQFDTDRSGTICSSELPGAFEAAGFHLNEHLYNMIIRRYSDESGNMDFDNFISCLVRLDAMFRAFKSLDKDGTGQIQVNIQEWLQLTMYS
# assay-procedure: Calpain I kinetic fluorescence enzyme inhibition assay
# condition-notes: apparent Ki from IC50 by Cheng-Prussoff; average of 2 to 4 dose-effect plots
measured-attribute: Ki

| molecule | result |
| --- | --- |
| CCCCC(NC(=O)c1cccnc1-n1ccc(-c2cccc(N3CCOCC3)c2)n1)C(=O)C(N)=O (stereo not drawn) [Example 59] | ≤ 40 nM |
| COc1ccc(CC(NC(=O)c2cccnc2-n2ccc(-c3ccccc3F)n2)C(=O)C(N)=O)cc1 (stereo not drawn) [Example 92] | 40 to 100 nM |
| N#Cc1cnc(-n2ccc(-c3ccccc3F)n2)c(C(=O)NC(Cc2ccccc2)C(=O)C(N)=O)c1 (stereo not drawn) [Example 188] | 40 to 100 nM |
| NC(=O)C(=O)C(Cc1ccccc1)NC(=O)c1cccnc1-n1ccc(-c2ccc3c(c2)OC(F)(F)O3)n1 (stereo not drawn) [Example 118] | ≤ 40 nM |
| COc1ccc(Cl)cc1-c1ccn(-c2ncccc2C(=O)NC(Cc2ccccc2)C(=O)C(N)=O)n1 (stereo not drawn) [Example 131] | ≤ 40 nM |
| CCCCC(NC(=O)c1cccnc1-n1ccc(-c2ccc(CN(CC)CC)cc2)n1)C(=O)C(N)=O (stereo not drawn) [Example 44] | ≤ 40 nM |
| NC(=O)C(=O)[C@H](Cc1ccccc1)NC(=O)c1cccnc1-n1ccc(-c2ccccc2)n1 [Example 107] | ≤ 40 nM |
| NC(=O)C(=O)C(Cc1ccccc1)NC(=O)c1cccnc1-n1ccc(-c2ccccc2OC(F)(F)F)n1 (stereo not drawn) [Example 124] | ≤ 40 nM |
| NC(=O)C(=O)C(Cc1ccccc1)NC(=O)c1cccnc1-n1ccc(-c2c(F)cccc2F)n1 (stereo not drawn) [Example 85] | ≤ 40 nM |
| NC(=O)C(=O)C(Cc1ccc(OC(F)(F)F)cc1)NC(=O)c1cccnc1-n1ccc(-c2ccccc2)n1 (stereo not drawn) [Example 133] | 40 to 100 nM |
| NC(=O)C(=O)C(Cc1ccccc1)NC(=O)c1cccnc1-n1ccc(-c2ccc(N3CCCC3)cc2)n1 (stereo not drawn) [Example 69] | 40 to 100 nM |
| COCc1cn(-c2ncccc2C(=O)NC(Cc2ccccc2)C(=O)C(N)=O)nc1-c1ccc(F)cc1 (stereo not drawn) [Example 170] | 40 to 100 nM |
| NC(=O)C(=O)C(Cc1ccccc1)NC(=O)c1cccnc1-n1cc2c(n1)-c1ccccc1CC2 (stereo not drawn) [Example 63] | ≤ 40 nM |
| NC(=O)C(=O)C(Cc1ccccc1)NC(=O)c1cccnc1-n1ccc(-c2cccc3ccccc23)n1 (stereo not drawn) [Example 110] | ≤ 40 nM |
| CC(C)c1ccc(-c2ccn(-c3ncccc3C(=O)NC(Cc3ccccc3)C(=O)C(N)=O)n2)cc1 (stereo not drawn) [Example 87] | ≤ 40 nM |
